These data points were gathered from ChEMBL document CHEMBL2331117.

- Test: Plasma protein binding in monkey at 5 uM
- Assay type: ADME, cell-free, Macaca mulatta
- Condition Set: rhesus monkey, read-out: PPB (converted)
Property Label: fraction unbound at 5 µM
One number for each entry.

// query Which fraction unbound at 5 µM is reported for this compound? Cc1c(C(=O)N2CCOc3ccc(-c4ccc(N)nc4)cc3C2)ccc(S(C)(=O)=O)c1F
// result 0.1

* * *

- Test: Volume of distribution at steady state in Beagle dog at 3 mg/kg, iv
- Type: ADME, organism-based, Canis lupus familiaris
- Parameters: dose 3 mg/kg, route intravenous
- Condition Set: in vivo, read-out: Vdss
Property Label: Vd (L/kg)
Give bare numbers, in L/kg.

// query Which Vd is reported for this compound? Cc1c(C(=O)N2CCOc3ccc(-c4ccc(N)nc4)cc3C2)ccc(S(C)(=O)=O)c1F
// result 3.15
